- Tested on: Hek293T
- PROCEDURE_TEXT: Primary qHTS to identify gynecologic anti-cancer compounds using libraries of approved drugs and bioactive compounds (AID 1345084); also: % is scaled to controls: 0 for no effect and ±100 for the full control effect; nearly all actives have a fitted effect of over 55% in size
- PARTICULARS: Gynecologic cancer cell panel viability, ATPlite luminescence, 48 h, control line for the selectivity index; series mostly up to 57.5 µM
Records with an inconclusive call do not appear. Calls of active or inactive are those of the source. Calls follow the shape of the dose curve; as a rule, active = well fitted cell-killing curve with a large enough effect; inconclusive = small, poorly fitted or top-dose-only effect, or effect the other way; inactive = flat fitted curve, though single readings scatter.
MEASUREMENT_LABEL: activity change, negative = cytotoxicity

Below are worked cases with known answers.
# MOLECULE, activity change, negative = cytotoxicity
rows = [
    ("CC(C)=CCCC1(C)Oc2cc3c(c4c2C2C(O4)C(C)(O)CCC21)CN(C(CCC(=O)O)C(=O)O)C3=O (stereo not drawn)", "inactive"),
    ("NC(=O)c1ccc(OCC2NC(=O)C3CCCN3C2=O)cc1 (stereo not drawn)", "inactive"),
    ("O=C(O[C@H]1[C@@H]2C=CO[C@@H](O[C@@H]3O[C@H](CO)[C@@H](O)[C@H](O)[C@H]3O)[C@@H]2[C@@]2(CO)O[C@@H]12)c1ccc(O)cc1", "inactive"),
    ("COc1cc(CC(COC2OC(CO)C(O)C(O)C2O)c2cc(/C=C/CO)cc(OC)c2O)ccc1O (stereo not drawn)", "inactive"),
    ("CC(=O)OC(CSC1CCC(=O)OC(C)CCC(=O)C1)C(=O)O (stereo not drawn)", "inactive"),
]

Inquiry: Param readout = activity change, negative = cytotoxicity; param system = Hek293T; param query = CC(=O)O[C@@H]1C[C@]2(C)[C@@]3(CCC4[C@@]5(C)CC[C@H](O[C@@H]6O[C@H](C(=O)O)[C@@H](O)[C@H](O[C@@H]7O[C@H](CO)[C@H](O)[C@H](O)[C@H]7O[C@@H]7O[C@@H](C)[C@H](O)[C@@H](O)[C@H]7O[C@@H]7OC[C@](O)(CO)[C@H]7O)[C@H]6O[C@@H]6O[C@H](CO)[C@H](O)[C@H](O)[C@H]6O)C(C)(C)C5CC[C@]42C)O[C@@H](O)[C@]12C3CC(C)(C)[C@@H](OC(=O)/C=C/c1ccc(O)c(O)c1)[C@@H]2OC(=O)/C=C/c1ccccc1 (stereo partly drawn) ; response: value
Reply text: 0.066% [at 6.55 µM] (inactive)

Inquiry: Quick one: "COC(=O)CC[C@@H](C)[C@H]1CC[C@H]2[C@@H]3CC(=O)[C@H]4C[C@H](OC(C)=O)CC[C@]4(C)[C@H]3CC[C@]12C"
Reply text: inactive

Inquiry: Quick one: "CCNC(=O)[C@@H]1CCCN1C(=O)[C@H](CCCN=C(N)N)NC(=O)[C@H](CC(C)C)NC(=O)[C@@H](C)NC(=O)[C@H](Cc1ccc(O)cc1)NC(=O)[C@H](CO)NC(=O)[C@H](Cc1c[nH]c2ccccc12)NC(=O)[C@H](Cc1cnc[nH]1)NC(=O)[C@@H]1CCC(=O)N1"
Reply text: inactive

----------
- Tested on: Hek293T
- PROCEDURE_TEXT: Primary qHTS to identify gynecologic anti-cancer compounds using libraries of approved drugs and bioactive compounds (AID 1345084); also: % is scaled to controls: 0 for no effect and ±100 for the full control effect; nearly all actives have a fitted effect of over 55% in size
- PARTICULARS: Gynecologic cancer cell panel viability, ATPlite luminescence, 48 h, control line for the selectivity index; series mostly up to 57.5 µM
Records with an inconclusive call do not appear. Calls of active or inactive are those of the source. The call rests on the fitted dose curve; in most records, active means well fitted cell-killing curve with a large enough effect; inconclusive means small, poorly fitted or top-dose-only effect, or effect the other way; inactive means flat fitted curve, though single readings scatter.
MEASUREMENT_LABEL: activity change, negative = cytotoxicity

# MOLECULE, VALUE
rows = [
    ("CC(C)C1(O[C@@H]2O[C@H](CO)[C@@H](O)[C@H](O)[C@H]2O)CC=C(CO)CC1 (stereo partly drawn)", "inactive"),
    ("COc1cc(O[C@@H]2O[C@H](CO)[C@@H](O)[C@H](O)[C@H]2O)c(CCC(=O)OC[C@H]2O[C@@H](Oc3cc(OC)c(C4OC(=O)C(C)(O)C4O)cc3CCC(=O)O)[C@H](O)[C@@H](O)[C@@H]2O)cc1C1OC(=O)C(C)(O)C1O (stereo partly drawn)", "-1.4% [at 11.6 µM] (inactive)"),
    ("CC[C@H]1OC(=O)[C@H](C)[C@@H](OC2C[C@@](C)(OC)[C@@H](O)[C@H](C)O2)[C@H](C)[C@@H](OC2O[C@H](C)C[C@H](NC)[C@H]2O)[C@](C)(O)C[C@@H](C)CN(C)[C@H](C)[C@@H](O)[C@]1(C)O (stereo partly drawn)", "inactive"),
]

----------
- PROCEDURE_TEXT: Primary redox qHTS assay for identification of artifact compounds. (AID 1845223);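 also: 0% = DMSO and 100% = reference compound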
- PARTICULARS: Amplex Red/HRP redox cycling with DTT, fluorescence; series mostly up to 53.8 µM
- Text: PI: Alexander Tropsha Ph.D. UNC Eshelman School of Pharmacy University of North Carolina, Chapel Hill, North Carolina Hits from high-throughput screening (HTS) of chemical libraries are often false positives due to their interference with the assay detection technology. […] Using these curated datasets, we developed and validated several Quantitative Structure-Interference Relationship (QSIR) models to predict nuisance behavior. […]
Inconclusive results are not listed. The source made the active and inactive calls. The call rests on the fitted dose curve; in most records, active means well fitted activation curve with a large enough effect; inconclusive means small, poorly fitted or top-dose-only effect; inactive means flat fitted curve, though single readings scatter.
MEASUREMENT_LABEL: redox activity (% of DA3003)

Inquiry: State the recorded redox activity (% of DA3003) for this entry: C[C@@H]1O[C@@H](O[C@H]2[C@H](OC(=O)C34CCC5(C)C(=CCC6C7(C)CC(O)C(O[C@@H]8O[C@H](C(=O)O)[C@@H](O)[C@H](O)[C@H]8O)C(C)(C(=O)O)C7CCC65C)C3CC(C)(C)CC4O)O[C@H](C)[C@@H](O)[C@@H]2O)[C@H](O)[C@@H](O[C@@H]2OC[C@](O)(CO)[C@H]2O[C@@H]2O[C@H](CO)[C@@H](O)[C@H](O)[C@H]2O)[C@H]1O (some centres not stated)
Reply text: 3.71% [at 11.5 µM] (inactive)

----------
- System: KB-3-1
- PROCEDURE_TEXT: Cytotoxic Profiling of Annotated Libraries Using Quantitative High-Throughput Screening (AID 1296008); also: % is scaled to controls: 0 for no effect and ±100 for the full control effect; nearly all actives have a fitted effect of over 60% in size
- PARTICULARS: Five cell lines viability, CellTiter-Glo ATP luminescence, 48-72 h; hits give low values
Inconclusive results are not listed.
MEASUREMENT_LABEL: max response (%)
Just the number please, in %, no unit attached.

Below are worked cases with known answers.
# COMPOUND, max response (%)
records = [
    ("CN1C(=O)c2ccccc2NC(=O)[C@]12O[C@@H]2c1cccc(O)c1", 4.06),
    ("COc1ccc(C[C@@H](C)NC[C@H](O)c2ccc(O)c(NC=O)c2)cc1", 2.59),
]

Inquiry: State the recorded max response for this entry: "COc1ccc2cc(OCC3(C(=O)O)CN(C(=O)c4ccc(F)cc4)C3)ccc2c1"
Reply text: 1.45

Inquiry: Quick one: CC(=O)N[C@H]1[C@H](O[C@H]2CC[C@@]3(C)C(CC[C@]4(C)C3CC=C3C5CC(C)(C)CC[C@]5(C(=O)O)[C@H](O[C@@H]5O[C@H](CO)[C@@H](O)[C@H](O)[C@H]5O)C[C@]34C)C2(C)C)O[C@H](CO[C@@H]2OC[C@H](O)[C@H](O)[C@H]2O[C@@H]2OC[C@@H](O)[C@H](O)[C@H]2O)[C@@H](O)[C@@H]1O (some centres not stated)
Reply text: 2.21

Inquiry: Quick one: "N#Cc1ccnc(N2C(=O)CC[C@H]2C(=O)N(c2cncc(F)c2)[C@H](C(=O)NC2CC(F)(F)C2)c2ccccc2Cl)c1"
Reply text: 1.75

Inquiry: Quick one: "CN[C@@H]1[C@@H](O)[C@@H](O[C@@H]2[C@@H](O)[C@H](O[C@H]3O[C@H](CN)[C@@H](O)[C@H](O)[C@H]3O)[C@@H](N)C[C@H]2NC(=O)[C@@H](O)CN)OC[C@]1(C)O"
Reply text: -2.9

Inquiry: Quick one: COc1cc2c(cc1O)C1(OC)Cc3ccc4c(c3C1N(C)CC2)OCO4 (configuration not stated)
Reply text: 9.56

Inquiry: Quick one: "OC[C@H]1O[C@@H](Oc2cc(O)cc(-c3cc4ccc(O)cc4o3)c2)[C@H](O)[C@@H](O)[C@@H]1O"
Reply text: 4.55

Inquiry: Quick one: C[C@@H]1C(=O)O[C@H]2CC34[C@H]5C[C@@H](C(C)(C)C)C36[C@@H](OC(=O)[C@@H]6O)O[C@@]4(C(=O)O5)[C@]21O (some centres not stated)
Reply text: -3.91

Inquiry: Quick one: O=C1NCc2nc3ccccc3c(=O)n2C1Cc1c[nH]c2ccccc12 (configuration not stated)
Reply text: 3.31

Inquiry: Quick one: NCc1c[nH]c(=S)n1C1CCc2c(F)cc(F)cc2C1 (configuration not stated)
Reply text: -6.7

Inquiry: Quick one: "OCc1ccccc1O[C@@H]1O[C@H](CO)[C@@H](O)[C@H](O)[C@H]1O"
Reply text: 6.41

Inquiry: Quick one: "c1ccc(C(OC2CCN(CCCc3nn[nH]n3)CC2)c2ccccc2)cc1"
Reply text: -3.18

Inquiry: Quick one: "CC[C@@H](c1ccc(F)c(F)c1)n1c(C(=O)OC)c(-c2ccno2)[nH]c1=S"
Reply text: 5.04

Inquiry: Quick one: C=C(C(=O)O)C1CCC(C)C2CCC(=O)OC2(C)C1 (configuration not stated)
Reply text: 6.53

Inquiry: Quick one: CC1CCC2C(C(=O)O)=CC3CC(C)(C)CC132 (configuration not stated)
Reply text: 3

Inquiry: Quick one: COC(=O)[C@@]1(C)CC[C@]2(C(=O)O[C@@H]3O[C@H](CO)[C@@H](O)[C@H](O)[C@H]3O)CC[C@]3(C)C(=CCC4[C@@]5(C)CC[C@H](O[C@@H]6O[C@H](C(=O)O)[C@@H](O)[C@H](O)[C@H]6O)C(C)(C)C5CC[C@]43C)[C@@H]2C1 (some centres not stated)
Reply text: -0.321

The measurements presented in this section are drawn from PubChem BioAssay (NCATS).
